Test system: fasted rats
Assay: Glucose tolerance test using fasted rats
Format: in vivo, Male Wistar rats
Conditions: Rattus norvegicus, 2 h; dose 1 mg/kg oral, 30 min before glucose loading (1 g/kg i.p.); blood glucose after 120 min, ratio of changes relative to control; read-out: ratio of decrease at 120 min later(%)
MEASURED_PARAMETER: inhibition in vivo at 1 mg/kg (%)
One number for each entry, in %.

Hi there! I need inhibition in vivo at 1 mg/kg for each item below, if you can.
1. O=C1CC(C(=O)c2ccccc2)CO1 (racemic) [Example 81, (±)-4-benzoyldihydro-2(3H)-furanone]
2. CC(=O)NCC(=O)c1ccccc1
3. O=C(CC(C(=O)O)C(=O)O)c1ccc(-c2ccccc2)cc1
4. O=C(O)CCC(=O)c1ccccc1
5. O=C1CC(C(=O)c2ccc(-c3ccccc3)cc2)CO1 (racemic)
6. O=C(O)CCC(=O)c1ccc(-c2ccccc2)cc1
7. O=C(O)CCC(=O)C1CCCCC1

Ans:
[1.7, -2.4, 4.9, 10.3, -8.2, 14.7, -0.9]
